Entry source: patent US20080039438A1

In this section, each of the molecules is paired with its reported MIC Range.
- System: Proteus vulgaris
- Method summary: MIC against clinically isolated aerobic Gram-negative strains
- Type: cell-based
- Study conditions: 15 strains

| Molecule | MIC Range |
| --- | --- |
| C[C@@H](O)[C@H]1C(=O)N2C(C(=O)O)=C(SCCN=CN)C[C@H]12 [IPM, Imipenem] | 0.25 to 2 µg/mL |
| C[C@@H](O)[C@H]1C(=O)N2C(C(=O)O)=C(S[C@@H]3CN[C@H](C(=O)N(C)C)C3)[C@H](C)[C@H]12 [MPM, meropenem] | 0.03 to 0.06 µg/mL |
| C[C@@H](O)[C@H]1C(=O)N2C(C(=O)O)=C(S[C@@H]3CN[C@H](/C=C/c4cc(C(=O)O)no4)C3)[C@H](C)[C@H]12 [Example] | 0.03 to 0.06 µg/mL |
| C[C@@H](O)[C@H]1C(=O)N2C(C(=O)O)=C(S[C@@H]3CN[C@H](C(=O)Nc4cccc(C(=O)O)c4)C3)[C@H](C)[C@H]12 [EPM, ertapenem] | 0.008 to 0.03 µg/mL |
